- measurementTarget: Polycomb protein EED (Homo sapiens)
- Sequence (O75530 whole entry): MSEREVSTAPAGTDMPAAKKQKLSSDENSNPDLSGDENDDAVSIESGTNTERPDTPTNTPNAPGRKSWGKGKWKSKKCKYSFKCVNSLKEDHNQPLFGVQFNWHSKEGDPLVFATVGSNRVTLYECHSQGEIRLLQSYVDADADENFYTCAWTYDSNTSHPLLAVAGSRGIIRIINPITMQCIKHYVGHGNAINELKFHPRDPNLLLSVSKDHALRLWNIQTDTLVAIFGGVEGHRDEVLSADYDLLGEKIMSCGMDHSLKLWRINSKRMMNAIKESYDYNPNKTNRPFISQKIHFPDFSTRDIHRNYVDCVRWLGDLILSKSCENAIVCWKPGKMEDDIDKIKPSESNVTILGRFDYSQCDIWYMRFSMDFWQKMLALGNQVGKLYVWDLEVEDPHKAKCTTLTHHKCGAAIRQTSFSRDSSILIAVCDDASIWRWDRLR
- methodNotes: Radioligand Binding Assay
- runParameters: 23 °C
observable: IC50

Query: // IC50 lookup, key: CN(C)[C@@H]1CN(Cc2ccccc2)C[C@H]1c1ccc(N2CCN(S(C)(=O)=O)CC2)cc1 [A-395N (6)]
Result: > 50 µM

----------
- measurementTarget: UniProt O75530
- methodNotes: EED A-395 Peptide Competition Assay
- runParameters: pH 7.5; 25 °C
observable: pIC50
As a rule, pIC50 stands for the negative log10 of the concentration, concentration in M.

Query: // pIC50 lookup, key: CN(C)[C@@H]1CN(Cc2ccccc2)C[C@H]1c1ccc(N2CCN(S(C)(=O)=O)CC2)cc1 [A-395N (6)]
Result: 5.88
